For each record, write down the corresponding CC50 at 120 h.
- assay.name: Cytotoxicity against human MT4 cells assessed as reduction in cell viability measured after 5 days by MTS/PES assay
- Format: cell-based
Please respond with the number in µM and leave the unit unwritten.

Measured CC50 at 120 h of O=C(CCC(CCC(=O)NC(Cc1c(-c2ccccc2)[nH]c2ccccc12)C(=O)O)(CCC(=O)NC(Cc1c(-c2ccccc2)[nH]c2ccccc12)C(=O)O)[N+](=O)[O-])NC(Cc1c(-c2ccccc2)[nH]c2ccccc12)C(=O)O (configuration not stated) : 83

Measured CC50 at 120 h of O=C(CCC(CCC(=O)NC(Cc1c(-c2ccc(C(=O)O)cc2)[nH]c2ccccc12)C(=O)O)(CCC(=O)NC(Cc1c(-c2ccc(C(=O)O)cc2)[nH]c2ccccc12)C(=O)O)[N+](=O)[O-])NC(Cc1c(-c2ccc(C(=O)O)cc2)[nH]c2ccccc12)C(=O)O (configuration not stated) : 71

Measured CC50 at 120 h of O=C(CCC(CCC(=O)NC(Cc1c(-c2ccc(Br)cc2)[nH]c2ccccc12)C(=O)O)(CCC(=O)NC(Cc1c(-c2ccc(Br)cc2)[nH]c2ccccc12)C(=O)O)[N+](=O)[O-])NC(Cc1c(-c2ccc(Br)cc2)[nH]c2ccccc12)C(=O)O (configuration not stated) : 30

---

- assay.name: Selectivity index, ratio of CC50 for human MT4 cells to EC50 for HIV-1 NL4.3 infected in human MT4 cells
property.name: selectivity ratio

Measured selectivity ratio of O=C(CCC(CCC(=O)NC(Cc1c(-c2ccc(C(F)(F)F)cc2)[nH]c2ccccc12)C(=O)O)(CCC(=O)NC(Cc1c(-c2ccc(C(F)(F)F)cc2)[nH]c2ccccc12)C(=O)O)[N+](=O)[O-])NC(Cc1c(-c2ccc(C(F)(F)F)cc2)[nH]c2ccccc12)C(=O)O (centres undefined) : > 4

Measured selectivity ratio of O=C(CCC(CCC(=O)NC(Cc1c(-c2ccc([N+](=O)[O-])cc2)[nH]c2ccccc12)C(=O)O)(CCC(=O)NC(Cc1c(-c2ccc([N+](=O)[O-])cc2)[nH]c2ccccc12)C(=O)O)[N+](=O)[O-])NC(Cc1c(-c2ccc([N+](=O)[O-])cc2)[nH]c2ccccc12)C(=O)O (centres undefined) : > 2

Measured selectivity ratio of O=C(CCC(CCC(=O)NC(Cc1cn(Cc2ccccc2)c2ccccc12)C(=O)O)(CCC(=O)NC(Cc1cn(Cc2ccccc2)c2ccccc12)C(=O)O)[N+](=O)[O-])NC(Cc1cn(Cc2ccccc2)c2ccccc12)C(=O)O (centres undefined) : > 2

Measured selectivity ratio of O=C(CCC(CCC(=O)NC(Cc1c(-c2ccccc2)[nH]c2ccccc12)C(=O)O)(CCC(=O)NC(Cc1c(-c2ccccc2)[nH]c2ccccc12)C(=O)O)[N+](=O)[O-])NC(Cc1c(-c2ccccc2)[nH]c2ccccc12)C(=O)O (centres undefined) : 4.4

---

- assay.name: Selectivity index, ratio of CC50 for human RD cells to EC50 for Enterovirus A71 BrCr infected in human RD cells
- Format: toxicity, cell-based
- cond: read-out: Ratio CC50/EC50
property.name: selectivity ratio

Measured selectivity ratio of `CCOC(=O)c1ccc(OCCC2CCN(c3ccc(C)nn3)CC2)cc1` : > 333

Measured selectivity ratio of O=C(CCOCC(COCCC(=O)NC(Cc1c(-c2cccc(C(=O)O)c2)[nH]c2ccccc12)C(=O)O)(COCCC(=O)NC(Cc1c(-c2cccc(C(=O)O)c2)[nH]c2ccccc12)C(=O)O)COCCC(=O)NC(Cc1c(-c2cccc(C(=O)O)c2)[nH]c2ccccc12)C(=O)O)NC(Cc1c(-c2cccc(C(=O)O)c2)[nH]c2ccccc12)C(=O)O (stereo not given) : > 336

Measured selectivity ratio of O=C(CCC(CCC(=O)NC(Cc1c(-c2cc(C(=O)O)cc(C(=O)O)c2)[nH]c2ccccc12)C(=O)O)(CCC(=O)NC(Cc1c(-c2cc(C(=O)O)cc(C(=O)O)c2)[nH]c2ccccc12)C(=O)O)[N+](=O)[O-])NC(Cc1c(-c2cc(C(=O)O)cc(C(=O)O)c2)[nH]c2ccccc12)C(=O)O (stereo not given) : > 203

Measured selectivity ratio of O=C(CCC(CCC(=O)NC(Cc1c(-c2cccc(C(=O)O)c2)[nH]c2ccccc12)C(=O)O)(CCC(=O)NC(Cc1c(-c2cccc(C(=O)O)c2)[nH]c2ccccc12)C(=O)O)[N+](=O)[O-])NC(Cc1c(-c2cccc(C(=O)O)c2)[nH]c2ccccc12)C(=O)O (stereo not given) : > 73.4

Measured selectivity ratio of O=C(CCOCC(COCCC(=O)NC(Cc1c(-c2ccc(C(=O)O)cc2)[nH]c2ccccc12)C(=O)O)(COCCC(=O)NC(Cc1c(-c2ccc(C(=O)O)cc2)[nH]c2ccccc12)C(=O)O)COCCC(=O)NC(Cc1c(-c2ccc(C(=O)O)cc2)[nH]c2ccccc12)C(=O)O)NC(Cc1c(-c2ccc(C(=O)O)cc2)[nH]c2ccccc12)C(=O)O (stereo not given) : 161
